targetOfAssay: ACC (acetyl CoA carboxylase) purified from liver of male SD rat (Rattus norvegicus, UniProt P11497)
Construct: applied to a monomeric avidin sepharose column, and washed with buffer B. The ACC was eluted with buffer B containing 2 mM d-biotin; from tissue; host or cells: liver of male SD rat
experiment: Measurement of ACC inhibition activity ([14C]-NaHCO3 incorporation)
Format: biochemical
measurementConditions: ACC inhibition activity rate at 1 μM; Table 4-IV, Mode 4 benzenediamine compounds (numbers = x-IV); read-out: ACC Inhibition (%)
Exercise: state measured inhibition at 1 µM for each of the compounds provided.

Recorded inhibition at 1 µM of "CC(C)CCN(C)c1ccc(-c2noc(-c3cccc(C(=O)NS(=O)(=O)c4ccccc4)c3)n2)cc1NCc1ccc2ccccc2c1" , please.
100%

Any idea what its inhibition at 1 µM is? The compound is "CCCCCC(=O)NS(=O)(=O)c1ccccc1NC(=O)c1ccc(Nc2ccc(C(F)(F)F)cc2)c(NC(=O)OCc2ccccc2)c1"
91%

Give its inhibition at 1 µM value. Item: CC(C)CCN(C)c1ccc(C(=O)NC(CC(=O)NS(=O)(=O)c2ccccc2)C2CCCCC2)cc1NCc1cccs1 (stereo not drawn)
70%

====

targetOfAssay: ACC (acetyl CoA carboxylase) purified from liver of male SD rat (Rattus norvegicus, UniProt P11497)
Construct: applied to a monomeric avidin sepharose column, and washed with buffer B. The ACC was eluted with buffer B containing 2 mM d-biotin; from tissue; host or cells: liver of male SD rat
experiment: Measurement of ACC inhibition activity ([14C]-NaHCO3 incorporation)
Type: biochemical
measurementConditions: ACC inhibition activity rate at 1 μM; Table 4-IV, Mode 4 benzenediamine compounds (numbers = x-IV); read-out: ACC Inhibition (%)
experimentalReadout: inhibition at 1 µM (%)
// note: answer is a bare numeric in %

Any idea what its inhibition at 1 µM is? The compound is CN(c1ccc(C(=O)NC(CC(=O)NS(=O)(=O)c2ccccc2)C2CCCCC2)cc1NCCOCc1ccccc1)C1CC1 (stereo not shown) [Compound 158-IV]
65

What inhibition at 1 µM value was documented for this compound, CC(C)CCN(C)c1ccc(-c2noc(-c3cccc(C(=O)NS(=O)(=O)c4ccccc4)c3)n2)cc1N(CCCc1ccccc1)CCCc1ccccc1 [compound 56] ?
100

inhibition at 1 µM lookup needed for CCCCCC(=O)NS(=O)(=O)c1ccccc1NC(=O)c1ccc(Nc2ccc(C(F)(F)F)cc2)c(NC(=O)c2ccc(C(F)(F)F)cc2)c1 [compound 28] , thanks.
92

Consider the compound CC(C)CCN(C)c1ccc(C(=O)NC(CC(=O)NS(=O)(=O)c2cn(C)cn2)C2CCCCC2)cc1N(C)Cc1ccccc1 (stereo not shown) [Compound 148-IV] and give its measured inhibition at 1 µM.
63

Can you share its inhibition at 1 µM? I mean this compound: CCCCCC(=O)NS(=O)(=O)c1ccccc1NC(=O)c1ccc(Nc2ccc(C(F)(F)F)cc2)c(NC(=O)c2ccncc2)c1 [compound 33]
61

Item under review: Cc1ccccc1S(=O)(=O)NC(=O)[C@@H]1CCCC[C@H]1NC(=O)c1ccc(N(C)CCC(C)C)c(NCc2ccccc2)c1 [Compound 145-IV] . Reported inhibition at 1 µM?
57

Can you share its inhibition at 1 µM? I mean this compound: CC(C)CCN(C)c1ccc(-c2noc(-c3cccc(C(=O)NS(=O)(=O)c4ccccc4)c3)n2)cc1NCc1ccc(O)cc1 [compound 95]
100

Give the measured inhibition at 1 µM of CC(C)CCN(C)c1ccc(-c2noc(-c3cccc(C(=O)NS(=O)(=O)c4cn(C)cn4)c3)n2)cc1N(C)Cc1ccc(OCCO)cc1 [Compound 142-IV] .
93

Can you look up the measured inhibition at 1 µM of Cc1ccccc1S(=O)(=O)NC(=O)c1cccc(-c2nc(-c3ccc(N(C)CCC(C)C)c(NCc4ccccc4)c3)no2)c1 [compound 103] for me?
100

Value lookup for inhibition at 1 µM; key = CC(C)CCN(C)c1ccc(C(=O)NC(CC(=O)NS(=O)(=O)c2ccccc2)C2CCCCC2)cc1NC(C)C (stereo not shown) [compound 84]
52

Requested read-out: inhibition at 1 µM. Entry: CC(C)CCN(C)c1ccc(-c2nc(-c3cccc(C(=O)NS(=O)(=O)c4ccccc4)c3)no2)cc1[N+](=O)[O-] [compound 51]
76

// lookup inhibition at 1 µM for Cc1ccccc1S(=O)(=O)NC(=O)c1cccc(-c2nc(-c3ccc(N(C)CCC(C)C)c(N4Cc5ccccc5C4=O)c3)no2)c1 [compound 127]
92

Could you share which inhibition at 1 µM value was measured for CCCCCC(=O)NS(=O)(=O)c1ccccc1NC(=O)c1ccc(Nc2ccccc2)c(NC(=O)c2cc(C(F)(F)F)cc(C(F)(F)F)c2)c1 [compound 26] ?
78
